assayTarget: SpBzz1-D1
assayComment: SPOT peptide array binding signal intensity (averaged, normalized) (arbitrary units (background-subtracted, floor 0; scale differs between SH3 domains)); higher = stronger binding of the SH3 domain to the peptide
observable: SPOT peptide array binding signal intensity
Output: the number by itself.

Answered examples (5):
QLMKNLPKIPLLNDI : 250
NPTKSPPPPPSPSTM : 548
GSKSGPPPRPKKPST : 320
VTHRLRISIPGITGR : 396
QFDLKMPSKPIHNLK : 104

Need SPOT peptide array binding signal intensity of LLGRKRPVMERVVDI , thanks.
158

Need SPOT peptide array binding signal intensity of GDHPKGPPPPPPPPD , thanks.
67
